protocol-description: Serum total fatty acids (% of total fatty acids), MMP dolphins versus wild Sarasota Bay dolphins
Assay type: in vivo, bottlenose dolphin (Tursiops truncatus)
particulars: MMP Dolphins (n = 30)
# key: entry, value: Serum fatty acid (%)
Could you give me the number in %? Just the number is fine.

Would you please look over these solved cases?
| input-smiles | u | numeric-value |
| --- | --- | --- |
| CCCCCCCCCCCCCCCCCCCCCC(=O)O | % | 0.2 |
| CCCCCCCCCCCCCCCCCCCC(=O)O | % | 0.9 |
| CCCCCCCCCCCCCCCCC(=O)O | % | 0.3 |

# lookup: Serum fatty acid (%) of CCCCCCCCCCCCCCCCCCCCCCCC(=O)O 0.1

Follow-up item: CCCCCCCCCCCCCCC(=O)O 0.3

Reference source: patent US10238618B2
